target: H3 (A/Brisbane/10/2007) (influenza A virus H3 …); assay: ELISA
pEC50: −log10 of the molar value.
Criterion: pEC50 meeting or surpassing 10. Met: TRUE. Not met: FALSE.

INSERT INTO measurements (binder, cat) VALUES
  ('VH 11 / VL 4 (antibody, V domains shown) VH: QVQLVQSGAEVKKPGASVKVSCKASGFTFSTYAINWVRQATGQGLEWMGWISYDANYKYYAQKFQGRVTMTRDTSISTAYMELSSLRSEDTAVYYCAKDSQLRSLLYFEWLSQGYFDYWGQGTTLTVSS VL: DIVMTQSPDSLAVSLGERATINCKSSQSVTFDYKNYLAWYQQKPGQPPKLLIYWASTRESGVPDRFSGSGSGTDFTLTISSLQAEDVAVYYCQQHYRTPPSFGQGTKVEIK', 'FALSE'),
  ('VH 12 / VL 2 (antibody, V domains shown) VH: QVQLVQSGAEVKKPGASVKVSCKASGFTFSTYAINWVRQATGQGLEWMGVISYDANYKYYAQKFQGRVTMTRDTSISTAYMELSSLRSEDTAVYYCARDSQLRSLLYFEWLSQGYFDYWGQGTTLTVSS VL: DIQMTQSPSSLSASVGDRVTITCRSSQSITFDYKNYLAWYQQKPGKAPKLLIYWGSSLQSGVPSRFSGSGSGTDFTLTISSLQPEDFATYYCQQHYRTPPSFGQGTKVEIK', 'FALSE'),
  ('VH 5 / VL 4 (antibody, V domains shown) VH: QVQLVESGGGVVQPGRSLRLSCAASGFTFSTYAMHWVRQAPGKGLEWVCVISYDANYKYYADSVKGRFTCSRDNSKNTLYLQMNSLRAEDTAVYYCARDSRLRSLLYFEWLSQGYFDYWGQGTLVTVSS VL: DIVMTQSPDSLAVSLGERATINCKSSQSVTFDYKNYLAWYQQKPGQPPKLLIYWASTRESGVPDRFSGSGSGTDFTLTISSLQAEDVAVYYCQQHYRTPPSFGQGTKVEIK', 'TRUE'),
  ('VH 3 / VL 2 (antibody, V domains shown) VH: QVQLVESGGGVVQPGRSLRLSCAASGFTFSTYAMHWVRQAPGKGLEWVAVISYDANYKYYADSVKGRFTISRDNSKNTLYLQMNSLRAEDTAVYYCAKDSQLRSLLYFEWLSQGYFDYWGQGTLVTVSS VL: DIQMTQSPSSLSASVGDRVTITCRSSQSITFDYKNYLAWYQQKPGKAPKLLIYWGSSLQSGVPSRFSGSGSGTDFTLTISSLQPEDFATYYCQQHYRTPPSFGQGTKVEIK', 'TRUE'),
  ('VH 10 / VL 2 (antibody, V domains shown) VH: QVQLVQSGAEVKKPGSSVKVSCKASGFTFSTYAIHWVRQAPGQGLEWMGVISYDANYKYYAQKFQGRVTITRDNSKSTAYMELSSLRSEDTAVYYCARDSRLRSLLYFEWLSQGYFDYWGQGTTLTVSS VL: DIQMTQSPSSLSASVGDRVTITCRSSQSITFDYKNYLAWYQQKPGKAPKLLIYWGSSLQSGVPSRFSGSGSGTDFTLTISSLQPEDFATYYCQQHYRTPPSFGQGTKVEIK', 'TRUE');
